Test: acute toxicity by oral administration (LD50), rats
Conditions: rat, in vivo, female rats, read-out: LD50 for rats (female)
Description: Safety of the effective components of the composition of the present invention will be given hereunder. For example, acute toxicity by oral administration of sodium o-nitrophenol, sodium p-nitrophenol and sodium 5-nitroguaiacol is as follows: Acute toxicity by oral administration is low. In addition, it has been also confirmed that those compounds are without problem in terms of toxicity by chronic toxicity test, teratogenic test and carcinogenic test. […]
Quantity name: LD50 (mg/kg)
Entry rule: numbers only, all in mg/kg.

Q) Need LD50 of O=[N+]([O-])c1ccccc1O.[Na] [Sodium o-nitrophenol, sodium o-nitrophenol] , thanks.
A) 1460

Q) Need LD50 of COc1ccc([N+](=O)[O-])cc1O [Sodium 5-nitroguaiacol, sodium 5-nitroguaiacol] , thanks.
A) 1270

Q) Need LD50 of O=[N+]([O-])c1ccc(O)cc1.[Na] [Sodium p-nitrophenol, sodium p-nitrophenol] , thanks.
A) 482
